Target: T1, Cyk3, Q07533
T1 sequence (Q07533 1-83, looked up): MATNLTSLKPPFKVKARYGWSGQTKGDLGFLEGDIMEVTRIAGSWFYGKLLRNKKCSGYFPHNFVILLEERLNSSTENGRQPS
Assay: SPOT array
Conditions: median of control spots 1451

# binder, SPOT intensity
measured = [
    ("NLKKRPPTAPQRKIS", 2),
    ("KFIPSRPAPKPPSSA", 0),
    ("QHQQRQPKRPKRYSL", 1),
    ("TKIRRRPQQPLTDFT", 1),
    ("TPRLSLPRLPNKHHW", 0),
    ("MAMRPIPPLPTESEY", 0),
    ("QFDLKMPSKPIHNLK", 0),
]

Cited source for all entries: paper PMC2756588
